Numbers sourced from PubChem BioAssay (NCI).

- test.description: NCI Yeast Anticancer Drug Screen. Data for the mlh1 rad18 strain (AID 175)
- settings: S. cerevisiae mlh1 rad18 strain growth inhibition; at 50.0 µM (retest, dose inferred, filed as 5.0); hits give high values
The panel holds about 79,000 compounds, 15% with a hit somewhere; the sample as a whole holds those more often.
quantity.name: growth inhibition (%)

molecule | readout.unit | observed.result
Cc1ccc(S)cc1.[Pb] | % | 13
CC(C)NCC(O)c1ccc(O)c(O)c1.[Pt].c1ccc([PH+](c2ccccc2)c2ccccc2)cc1.c1ccc([PH+](c2ccccc2)c2ccccc2)cc1 | % | 99
C/C(=N\NC(N)=O)C(CN1CCOCC1)C(c1ccccc1)c1c(O)c2ccccc2oc1=O (stereo not given) | % | 40
C[C@@]12CCC(=O)C=C1CC[C@H]1C2=CC[C@]2(C)C1CC[C@@]2(C)O (stereo not given in full) | % | 58
Oc1c(Cl)cc(-c2cc(Cl)c(O)c(Cl)c2)cc1Cl | % | 99

* * *

Listed here are molecules together with their documented growth inhibition.
- test.description: NCI Yeast Anticancer Drug Screen. Data for the mec2-1 strain (AID 157)
- settings: S. cerevisiae mec2-1 strain, at 11.0 µM, hits give high values
The panel holds about 79,000 compounds, 15% with a hit somewhere; the sample as a whole holds those more often.
quantity.name: growth inhibition (%)

molecule | readout.unit | observed.result
CC1CC(C)CC(C)C(O)/C(C#N)=C/C=C/CC(C2CCCC2C(=O)O)OC(=O)CC(O)C(C)C1 (stereo not given) | % | 98
C[CH2][Sn]1([CH2]C)[O]C2C(O)OC(CO)C(O)C2[O]1 (stereo not given) | % | 4
O=C(O)CCCc1cc(I)c(N(CCCl)CCCl)c(I)c1 | % | -36
O=C(O)c1ccccc1.[Ag] | % | 99
CCCCCCCCCCCCCCCCP(=O)(O)OP(=O)(O)OCC1OC(n2ccc(N)nc2=O)C(O)C1O (stereo not given) | % | -4

* * *

Listed here are compounds together with their documented growth inhibition.
- test.description: NCI Yeast Anticancer Drug Screen. Data for the mec2-1 strain (AID 157)
- settings: S. cerevisiae mec2-1 strain, at 50.0 µM, hits give high values
Compounds without any hit were thinned out: in the full panel of roughly 79,000, 15% have a hit.

compound | growth inhibition / %
COc1cc(N(CCCl)CCCl)ccc1C=Nc1cccc(Cl)c1 | 62.6
CC(=O)O/C(=C1\C[C@H]2[C@@H]3CC=C4C[C@@H](OC(C)=O)CC[C@]4(C)[C@H]3CC[C@]2(C)C1=O)C(F)(F)F | 80.5
CCCCCCCC[N+](CCCC)(CCCC)CCCC (tested in a mixture with another compound) | 99.7
Cc1c(N)nc([C@H](CC(N)=O)NC[C@H](N)C(N)=O)nc1C(=O)N[C@H](C(=O)N[C@H](C)[C@@H](O)[C@H](C)C(=O)N[C@H](C(=O)NCCc1nc(-c2nc(C(=O)NCCC[S+](C)C)cs2)cs1)[C@@H](C)O)C(OC1OC(CO)C(O)C(O)C1OC1OC(CO)C(O)C(OC(N)=O)C1O)c1cnc[nH]1 (some centres not stated) | 93.5
O=C1C=CC(=O)C1(Br)Br | 99.8
Cc1cc[n+](C2=C(Nc3cc(C)cc(C)c3)C(=O)c3ccccc3C2=O)cc1 | 28.5
O=P(c1ccccc1)(c1ccccc1)c1ccccc1.O=P(c1ccccc1)(c1ccccc1)c1ccccc1.S=C=[N][Sn]([N]=C=S)([N]=C=S)[c]1ccccc1 | 99.5

* * *

- test.description: NCI Yeast Anticancer Drug Screen. Data for the sgs1 strain (AID 173);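 note: 0% = growth of vehicle-only control cultures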
- settings: S. cerevisiae sgs1 mutant, at 100.0 µM
This is part of a sample that, as a whole, favours compounds with a hit. Of some 79,000 tested, about 15% had one in any assay. Active and inactive are the calls of the source. Rule as the data show it: active = growth inhibition above about 70%; inactive = the rest.
Labels: active, inactive

compound | assigned.category
COC(=O)C(F)C(Br)C(=O)OC (stereo not drawn) | active
CN(C)CCC(C(=O)C(Br)Br)(c1ccccc1)c1ccccc1 | active
COC(COC(=O)N1CCN(C=O)CC1)C1=C(N2CC2)C(=O)C(C)=C(N2CC2)C1=O (stereo not drawn) | inactive
CC1CCCN(CCc2ccccc2)CC1 (stereo not drawn) | inactive
CCC(=O)OC1CCn2c1nc1c2C(=O)C(C)=C(N2CC2)C1=O (stereo not drawn) | active
CNC(=O)OCC1C2=C(C(=O)C(C)=C(N)C2=O)N2CC3C(N3C)C12OC (stereo not drawn) | inactive
CN(N=O)C(=O)NNC(=O)N(C)N=O | active
CN(C)CCSC1=Nc2ccc(Cl)cc2C(c2ccccc2Cl)=NC1 | active
COc1cc(O)c2c(O)c3c(c4c2c1[C@]1(C4)C(C)=CCCC1(C)C)[C@H](O)[C@@]1(O)CC(=O)C(C(N)=O)=C(O)[C@@]1(O)C3=O | active
CC1=C(O)C(=O)C=C2C1=CC=C1[C@@]2(C)CCC2(C)[C@@H]3C[C@@H](C)C(=O)C[C@]3(C)CC[C@]12C (stereo partly drawn) | active
COC(=O)C1C2c3ccccc3C(c3ccccc32)C1C(=O)OC (stereo not drawn) | inactive
CCNCC(=O)O[C@]1(CC)C(=O)OCc2c1cc1n(c2=O)Cc2cc3ccccc3nc2-1 | inactive
CCCCCNC(=O)c1c(O)[nH]c(=S)[nH]c1=O | active
COc1cc2ccccc2c2cc([N+](=O)[O-])oc12 | active
Br[Se]c1ccccn1 | active
O=C1c2ccccc2C(=O)C(Cl)C1Cl (stereo not drawn) | active
Nc1nnc(N)n1-n1c(N)nnc1N | inactive
NC1=NCC(c2ccc(Cl)cc2)O1 (stereo not drawn) | inactive
CCCN(CCC)c1c([N+](=O)[O-])cc(S(N)(=O)=O)cc1[N+](=O)[O-] | inactive
Cc1c([N+](=O)[O-])oc2ccc3ccccc3c12 | active
Cc1ccc2nc3sc(=O)sc3nc2c1 | active
[O-][n+]1c2cccc(O)c2[n+]([O-])c2cccc(O)c21 | inactive
CCNC(=O)OCC1C2=C(C(=O)C(C)=C(N)C2=O)N2CC3C(N3C)C12OC (stereo not drawn) | active

* * *

- test.description: NCI Yeast Anticancer Drug Screen. Data for the rad14 strain (AID 159);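 note: 0% = growth of vehicle-treated control cultures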
- settings: S. cerevisiae rad14 strain growth inhibition; at 11.0 µM; hits give high values
Compounds without any hit were thinned out: in the full panel of roughly 79,000, 15% have a hit.
Listed here are compounds together with their documented growth inhibition.
quantity.name: growth inhibition (%)

compound | quantity.name | readout.unit | observed.result
CCOC(=O)C1=C(C(=O)OCC)C2(c3ccccc3)N(O1)c1ccccc1C2(C)C (stereo unspecified) | growth inhibition | % | -3
O=P(Oc1ccc(Cl)cc1)(Oc1ccc(Cl)cc1)N1CC1 | growth inhibition | % | 5
CC1CN1C1=C(Cl)C(=O)C(N2CC2C)=C(Cl)C1=O (stereo unspecified) | growth inhibition | % | 50
CC1=C(N2CC2)C(=O)c2ccccc2C1=O | growth inhibition | % | 14
O=c1oc2ccccc2c(O)c1C(c1ccc2c(c1)Cc1ccccc1-2)c1c(O)c2ccccc2oc1=O | growth inhibition | % | 18
CC1CCC2(NC1)OC1CC3C4CCC5CC(OC6OC(CO)C(OC7OC(CO)C(O)C(OC8OCC(O)C(O)C8O)C7OC7OC(CO)C(O)C(O)C7O)C(O)C6O)CCC5(C)C4CCC3(C)C1C2C (stereo unspecified) | growth inhibition | % | -5

* * *

- test.description: NCI Yeast Anticancer Drug Screen. Data for the mlh1 rad18 strain (AID 175)
- settings: S. cerevisiae mlh1 rad18 strain growth inhibition; at 5.0 µM (retest, dose inferred, filed as 0.5); hits give high values
This is part of a sample that, as a whole, favours compounds with a hit. Of some 79,000 tested, about 15% had one in any assay.
Hi, to clarify the labels: MET covers growth inhibition from 10% upward, NOT MET covers anything below 10%.

compound | assigned.category
O=[As]c1ccc([N+](=O)[O-])cc1 (centres undefined) | MET
C[CH2][Sn]([CH2]C)([O]S(C)(=O)=O)[O]S(C)(=O)=O | MET
CC(=O)C1CCC2C3CCC4=CC(=[N+]5CCCCC5)CCC4(C)C3CCC12C (centres undefined) | MET
N#CN(Cc1ccccc1)C(c1ccccc1)(c1ccccc1)c1ccccc1.[Cl][Sn]([c]1ccccc1)([c]1ccccc1)[c]1ccccc1 | MET
CC(C)CCCC(C)CCC1C(=O)NC(=O)NC1=O (centres undefined) | MET
O=C(O)c1ccc(NP(=O)(O)Oc2ccccc2)cc1 (tested in a mixture with another compound) | MET
C/C(CCl)=N/NC1=NC(c2ccccc2Cl)P(=O)(NCCCNP2(=O)SC(N/N=C(/C)CCl)=NC2c2ccccc2Cl)S1 (centres undefined) | NOT MET
CCC(C)N1CN(c2ccccc2)C2(CCN(CCCC3(c4ccc(F)cc4)OCCO3)CC2)C1=O (centres undefined) | NOT MET
O=C(C1C(c2ccccc2)N1C(c1ccccc1)c1ccccc1)C1C(c2ccccc2)N1C(c1ccccc1)c1ccccc1 (centres undefined) | NOT MET
